Ref: PubChem BioAssay

Method summary: growth inhibitors of H69AR lung tumor, primary screen, human, duplicate replicates (AID 580);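 further: 100% = mean luminescence of untreated wells and 0% = no signal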
Run conditions: H69AR lung tumor cells viability, ATP luminescence, 72 h; at 10 µM; active compounds read low

{"Molecule": "COc1ccccc1OCC(=O)Nc1cccc(-c2nc3ccccc3o2)c1", "Units text": "%", "viability": 65.1}
{"Molecule": "CCCc1[nH]nc2c1C(c1cccc(OC(=O)c3ccco3)c1)C(C#N)=C(N)O2 (stereo not drawn)", "Units text": "%", "viability": 95.3}
{"Molecule": "O=C(CN1CCOCC1)N1CCN(C(=O)CN2CCOCC2)CC1", "Units text": "%", "viability": 104}
{"Molecule": "CCOC(=O)Nc1sc(=S)n(C)c1C", "Units text": "%", "viability": 98}
{"Molecule": "COC(=O)C1C(=O)c2c([nH]c(C(=O)OCCOC(C)C)c2C)CC1C (stereo not drawn)", "Units text": "%", "viability": 99.5}
{"Molecule": "O=C(Nc1ccncc1)c1cncc(Br)c1", "Units text": "%", "viability": 100}
{"Molecule": "COc1cccc(-c2cc(C(=O)Nc3cc(OC)c(OC)c(OC)c3)no2)c1", "Units text": "%", "viability": 16.6}
{"Molecule": "O=S(=O)(c1ccccc1)c1nc(-c2ccco2)oc1NCCCN1CCOCC1", "Units text": "%", "viability": 95.4}

----------
Method summary: growth suppression of yeast trafficking mutant, preliminary HTS, modulators of trafficking downstream of Golgi apparatus project, 1536-format plate, OD 615 nm (AID 637)
Run conditions: yeast transport mutant growth, absorbance 615 nm, 18 h; active compounds read high

{"Molecule": "Cc1ccc(Cn2nnc3c(=O)n(CC(=O)NCC4CCCO4)cnc32)cc1 (stereo not given)", "inhibition (%)": -0.79}
{"Molecule": "Cc1cccc(-c2nnn(CC/C(N)=N/O)n2)c1", "inhibition (%)": -0.16}
{"Molecule": "Cc1cccc(NC(=O)Cn2c(=O)n(C)c3ccccc32)c1", "inhibition (%)": -2.7}
{"Molecule": "O=C(CN1C(=O)CC(c2ccco2)Sc2ccccc21)Nc1ccccc1F (stereo not given)", "inhibition (%)": -0.83}
{"Molecule": "CC(=O)NS(=O)(=O)c1ccc(NC(=O)c2ccccc2F)cc1", "inhibition (%)": 2.33}

----------
Method summary: 384-well plate pilot, post-Golgi transport modulator project, inhibition of yeast transport mutant growth (AID 636)
Run conditions: absorbance 615 nm, about 18 h, active compounds read high
Measured attribute: inhibition (%)

{"Compound": "Cc1cc(-n2c(C)cc(C(=O)CSc3nc4ccccc4c(=O)n3Cc3ccco3)c2C)no1", "Quantitative readout": -6.8}
{"Compound": "CCCCOCCCNC(=O)c1ccccc1OCC", "Quantitative readout": -3.72}
{"Compound": "COc1ccccc1NC(=O)c1nnn(CC(=O)Nc2ccccc2)c1N", "Quantitative readout": -5.47}
{"Compound": "CCOC(=O)C(NCc1ccccc1OC)(NC(C)=O)C(F)(F)F (configuration not stated)", "Quantitative readout": -2.6}
{"Compound": "O=C(CCC(=O)N(c1cccc(F)c1)C(C(=O)NC1CCCC1)c1ccncc1)Nc1cccnc1 (configuration not stated)", "Quantitative readout": -0.8}
{"Compound": "Cc1cccc(-c2cc3nc(C)cc(NCCCN(C)C)n3n2)c1", "Quantitative readout": -6.93}
{"Compound": "O=C(CSc1nnc(-c2cccnc2)o1)OC1CCCCC1", "Quantitative readout": -7.87}
{"Compound": "CCN(CC)Cc1nc2c(c(=O)[nH]1)C1(CCCCC1)Cc1ccccc1-2", "Quantitative readout": -5.07}
{"Compound": "COc1ccc(S(=O)(=O)CCC(=O)O)cc1", "Quantitative readout": -4.05}
{"Compound": "CCC1Oc2ccccc2N(CC(=O)Nc2ccc(OC)cc2OC)C1=O (configuration not stated)", "Quantitative readout": -2.24}
{"Compound": "CCN1C(=O)Cc2cc(S(=O)(=O)N3CCOCC3)ccc21", "Quantitative readout": -6.4}
{"Compound": "COC(=O)Cn1cnc2c(nnn2-c2ccc(C)cc2)c1=O", "Quantitative readout": -6.62}
{"Compound": "Cc1ccc(S(=O)(=O)Cc2ccc(C(=O)NCCCN3CCN(C)CC3)o2)cc1", "Quantitative readout": -0.66}
{"Compound": "COc1ccc(CCNC(=O)C2CCN(S(=O)(=O)c3cc(OC)ccc3OC)CC2)cc1", "Quantitative readout": -7.97}
{"Compound": "O=C(OCC(=O)c1cccs1)C1=COCCO1", "Quantitative readout": -0.38}
{"Compound": "COc1cc(C)nc(NS(=O)(=O)c2ccc(C)cc2)n1", "Quantitative readout": -3.82}
{"Compound": "Cc1[nH]n2c(=O)cc(Cc3ccccc3)nc2c1C#N", "Quantitative readout": -2.89}
{"Compound": "Cc1occc1-c1nnc(SCC(=O)c2ccc(F)cc2)n1Cc1ccco1", "Quantitative readout": -1.33}
{"Compound": "COc1ccc(CCNC(=O)C2CCN(C(=O)N(C)C)CC2)cc1OC", "Quantitative readout": -2.05}
{"Compound": "O=C(c1ccco1)N1CCN(S(=O)(=O)c2ccc(C3CCCCC3)cc2)CC1", "Quantitative readout": -4.53}
{"Compound": "CC1(C)CC(=O)C(CC2=C(O)CC(C)(C)CC2=O)=C(O)C1", "Quantitative readout": -3.68}
{"Compound": "CCOc1ccc(N2CC(C(=O)Nc3cccc(C)c3C)CC2=O)cc1 (configuration not stated)", "Quantitative readout": -3.47}
